- target-entity: CDK12 (aa686-1082)/cyclinK complex (Homo sapiens)
- Construct: A CDK12 (aa686-1082)/cyclinK complex (50 nM)
- Sequence (Q9NYV4 686-1082, species assumed): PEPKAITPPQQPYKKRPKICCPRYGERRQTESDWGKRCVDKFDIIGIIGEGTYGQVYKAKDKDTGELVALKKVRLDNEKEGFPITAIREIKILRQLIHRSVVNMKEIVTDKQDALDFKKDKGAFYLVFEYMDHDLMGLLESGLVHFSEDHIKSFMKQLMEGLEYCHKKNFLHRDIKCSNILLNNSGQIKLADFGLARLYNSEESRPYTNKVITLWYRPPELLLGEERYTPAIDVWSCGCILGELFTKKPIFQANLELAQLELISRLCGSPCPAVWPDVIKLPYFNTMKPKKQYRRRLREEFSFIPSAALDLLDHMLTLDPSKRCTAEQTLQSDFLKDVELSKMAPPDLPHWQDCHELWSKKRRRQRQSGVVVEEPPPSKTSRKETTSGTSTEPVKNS
- Sequence (O75909 whole entry partner, species assumed, the tested form may be a part): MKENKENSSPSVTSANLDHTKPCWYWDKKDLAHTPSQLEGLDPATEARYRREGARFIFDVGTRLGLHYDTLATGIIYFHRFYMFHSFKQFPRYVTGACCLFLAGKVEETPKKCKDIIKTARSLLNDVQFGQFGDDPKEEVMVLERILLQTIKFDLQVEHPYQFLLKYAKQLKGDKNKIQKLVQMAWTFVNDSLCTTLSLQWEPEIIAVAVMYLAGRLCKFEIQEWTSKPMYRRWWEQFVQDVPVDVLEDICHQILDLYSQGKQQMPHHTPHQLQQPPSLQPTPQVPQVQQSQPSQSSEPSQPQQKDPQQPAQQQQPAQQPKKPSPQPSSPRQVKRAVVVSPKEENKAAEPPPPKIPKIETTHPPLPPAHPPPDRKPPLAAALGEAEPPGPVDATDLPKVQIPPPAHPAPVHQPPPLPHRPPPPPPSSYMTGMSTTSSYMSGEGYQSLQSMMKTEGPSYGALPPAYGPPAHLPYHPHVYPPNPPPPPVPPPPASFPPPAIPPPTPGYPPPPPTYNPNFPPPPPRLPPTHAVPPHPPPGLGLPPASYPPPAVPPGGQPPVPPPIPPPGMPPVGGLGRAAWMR
- run-description: In-vitro enzymatic inhibitory activity testing, CDK12 inhibition assay (Caliper EZ Reader II)
- Format: biochemical
- measurement-parameters: CDK12/cyclinK 50 nM, 180 min at 27° C.; read-out: CDK12 IC50
readout-kind: IC50

Here are 5 molecules together with their reported answers.
[[record]]
molecule = "FC(F)(F)c1cnc(NC2CCC3CNCC32)nc1-c1c[nH]c2nc(N3CCOCC3)ccc12 (single isomer, unassigned) [Compound 56]"
test_result = "> 50 µM"

[[record]]
molecule = "CP(C)(=O)c1cccc2c(-c3nc(NC4CCC5(CCNC5)C4)ncc3C(F)(F)F)c[nH]c12 (single isomer, unassigned) [Compound 100]"
test_result = "0.2 to 5 µM"

[[record]]
molecule = "CP(C)(=O)c1cccc2c(-c3nc(N[C@@H]4CC[C@H]4O)ncc3C(F)(F)F)c[nH]c12"
test_result = "> 50 µM"

[[record]]
molecule = "CP(C)(=O)c1cccc2c(-c3nc(N[C@@H]4CCC[C@H]4O)ncc3C(F)(F)F)c[nH]c12"
test_result = "5 to 50 µM"

[[record]]
molecule = "CP(C)(=O)c1cccc2c(-c3nc(NCC4(O)CCOCC4)ncc3C(F)(F)F)c[nH]c12"
test_result = "> 50 µM"


Req: State the recorded IC50 for this entry: FC(F)(F)c1cnc(NC2C3CNCC32)nc1-c1c[nH]c2nc(N3CCOCC3)ccc12 (stereo not shown)
Resp: 5 to 50 µM

Req: I would be grateful if you could share the reported IC50 for COc1cc(P(C)(C)=O)c2[nH]cc(-c3nc(N[C@@H](C)CO)ncc3C(F)(F)F)c2c1 .
Resp: > 50 µM

From: patent US20240124504A1
